Ref: patent US20150239831A1

- experimental target: UniProt:P41587
- procedure text: Inhibition of VIP-induced β-arrestin recruitment (% Activity Arrestin)
- Format: cell-based
- Design: expressed in transfected cells; host or cells: HEK293 cells transfected with VIPR2 in pCDNA3.1 (as described)
- test conditions: 0.5 μM, Batch 3
- From the text: In a further non-limiting embodiment of the invention, the ability of a compound to inhibit VIPR2 GPCR activity may be tested, for example, using the PathHunter® eXpress β-Arrestin GPCR system (Discoverx Corporation, Fremont, Calif., US), as used by Chu et al., 2010, Molecular Pharmacol. 7795-101. […]
Exercise: for every item that follows, state its recorded inhibition at 0.5 µM.
One number for each entry, in %.

Please review the following examples before continuing.
CNc1ccc(S(=O)(=O)NC[C@@H](O)C[C@@H](Cc2ccccc2)C(=O)N[C@H]2c3ccccc3C[C@H]2O)cc1 ... -0.8
O=C(Nc1ccc(S(=O)(=O)NC[C@@H](O)C[C@@H](Cc2ccccc2)C(=O)N[C@H]2c3ccccc3C[C@H]2O)cc1)C1CC1 ... 6.4
CC(=O)Nc1ccc(S(=O)(=O)NC[C@@H](O)C[C@@H](Cc2ccccc2)C(=O)N[C@H]2c3ccccc3C[C@H]2O)cc1 ... -1.2

# batch: return inhibition at 0.5 µM for each of the 3 compounds below
1. O=C(N[C@H]1c2ccccc2C[C@H]1O)[C@H](Cc1ccccc1)C[C@H](O)CNS(=O)(=O)c1ccc(C(=O)N2CCOCC2)cc1
2. CNC(=O)c1ccc(S(=O)(=O)NC[C@@H](O)C[C@@H](Cc2ccccc2)C(=O)N[C@H]2c3ccccc3C[C@H]2O)cc1
3. CN(C)c1ccc(S(=O)(=O)NC[C@@H](O)C[C@@H](Cc2ccccc2)C(=O)N[C@H]2c3ccccc3C[C@H]2O)cc1

Response:
1. 4.1
2. 6.3
3. 4.2

###

- experimental target: VIPR2 (Homo sapiens)
- Sequence (P41587 24-438): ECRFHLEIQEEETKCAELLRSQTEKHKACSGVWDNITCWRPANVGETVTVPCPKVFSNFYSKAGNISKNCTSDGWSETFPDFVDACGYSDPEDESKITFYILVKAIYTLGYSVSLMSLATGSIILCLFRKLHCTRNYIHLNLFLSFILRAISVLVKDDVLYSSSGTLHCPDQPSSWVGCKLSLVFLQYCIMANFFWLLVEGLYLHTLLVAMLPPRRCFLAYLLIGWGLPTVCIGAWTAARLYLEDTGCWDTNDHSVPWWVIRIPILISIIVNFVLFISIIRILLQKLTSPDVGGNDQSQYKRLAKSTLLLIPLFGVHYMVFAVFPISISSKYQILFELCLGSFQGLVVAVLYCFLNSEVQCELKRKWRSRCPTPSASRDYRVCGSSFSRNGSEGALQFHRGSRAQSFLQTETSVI
- procedure text: Inhibition of VIP-induced cAMP elevation (% Activity cAMP)
- Format: cell-based
- Set-up: expressed in transfected cells; host or cells: HEK293 cells transfected with VIPR2 in pCDNA3.1 (as described)
- test conditions: 0.5 μM, Batch 1
readout type: inhibition at 0.5 µM
Report field: quantity (unit follows the number).

Observe how each entry below is paired with its result.
Cc1ccc(S(=O)(=O)NC[C@@H](O)C[C@@H](Cc2ccccc2)C(=O)N[C@H]2c3ccccc3C[C@H]2O)c(C)c1 [N] ... 14.1%
O=C(CCl)NC[C@@H](O)C[C@@H](Cc1ccccc1)C(=O)N[C@H]1c2ccccc2C[C@H]1O [Compound A7] ... 18.4%

Each compound below has a reported value. Please supply its inhibition at 0.5 µM.
1. O=C(CCCCBr)NC[C@@H](O)C[C@@H](Cc1ccccc1)C(=O)N[C@H]1c2ccccc2C[C@H]1O [Compound A15]
2. COc1cc(C(=O)NC[C@@H](O)C[C@@H](Cc2ccccc2)C(=O)N[C@H]2c3ccccc3C[C@H]2O)cc(OC)c1OC [H]
3. CC(C)C(=O)NC[C@@H](O)C[C@@H](Cc1ccccc1)C(=O)N[C@H]1c2ccccc2C[C@H]1O [Compound A13]
4. O=C(NC[C@@H](O)C[C@@H](Cc1ccccc1)C(=O)N[C@H]1c2ccccc2C[C@H]1O)c1ccncc1 [Compound A18]

Response:
1. 11.7%
2. 15.6%
3. 0.7%
4. 14.2%

Field inhibition at 0.5 µM (VIPR2 (Homo sapiens)), entry O=C(N[C@H]1c2ccccc2C[C@H]1O)[C@H](Cc1ccccc1)C[C@H](O)CNS(=O)(=O)c1ccc([N+](=O)[O-])cc1 [Compound A27, reference compound] : 42.6%
